Test: total protein half-life in vivo (active degradation + dilution); higher = more stable protein
Conditions: E. coli NCM3722 delta-lon; growth: N-lim chemostat; doubling time 6 h
Below, each entry is listed alongside its reported total protein half-life in vivo.
Report the value in h with no unit label.

{"Residue string": "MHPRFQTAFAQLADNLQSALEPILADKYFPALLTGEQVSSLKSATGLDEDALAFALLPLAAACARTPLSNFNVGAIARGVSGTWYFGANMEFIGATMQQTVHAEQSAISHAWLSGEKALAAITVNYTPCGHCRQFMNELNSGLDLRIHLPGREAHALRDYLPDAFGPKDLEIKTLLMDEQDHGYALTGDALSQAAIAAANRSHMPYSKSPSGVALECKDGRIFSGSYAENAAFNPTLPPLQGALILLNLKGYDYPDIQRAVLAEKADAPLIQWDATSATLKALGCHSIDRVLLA [P0ABF6]", "Measurement": 6.28}
{"Residue string": "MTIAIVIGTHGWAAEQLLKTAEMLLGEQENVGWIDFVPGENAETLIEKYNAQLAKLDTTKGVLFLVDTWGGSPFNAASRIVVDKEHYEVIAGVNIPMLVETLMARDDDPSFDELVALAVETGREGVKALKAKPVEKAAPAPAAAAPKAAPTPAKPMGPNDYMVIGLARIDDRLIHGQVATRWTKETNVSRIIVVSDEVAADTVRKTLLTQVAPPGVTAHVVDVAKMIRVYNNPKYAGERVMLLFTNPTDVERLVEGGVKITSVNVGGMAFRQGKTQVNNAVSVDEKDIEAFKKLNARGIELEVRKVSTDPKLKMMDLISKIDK", "Measurement": 6.12}
{"Residue string": "MARIIVVTSGKGGVGKTTSSAAIATGLAQKGKKTVVIDFDIGLRNLDLIMGCERRVVYDFVNVIQGDATLNQALIKDKRTENLYILPASQTRDKDALTREGVAKVLDDLKAMDFEFIVCDSPAGIETGALMALYFADEAIITTNPEVSSVRDSDRILGILASKSRRAENGEEPIKEHLLLTRYNPGRVSRGDMLSMEDVLEILRIKLVGVIPEDQSVLRASNQGEPVILDINADAGKAYADTVERLLGEERPFRFIEEEKKGFLKRLFGG [P0AEZ3]", "Measurement": 5.66}
{"Residue string": "MKALSPIAVLISALLLQGCVAAAVVGTAAVGTKAATDPRSVGTQVDDGTLEVRVNSALSKDEQIKKEARINVTAYQGKVLLVGQSPNAELSARAKQIAMGVDGANEVYNEIRQGQPIGLGEASNDTWITTKVRSQLLTSDLVKSSNVKVTTENGEVFLMGLVTEREAKAAADIASRVSGVKRVTTAFTFIK", "Measurement": 6.34}
{"Residue string": "MEQRHITGKSHWYHETQSSTTEYDVLPLVPEAAKVSDPFLLDVILEKETLAPFLSWLDPARVLAVDLFPDQLTVTRSQTFTAYERLSTALTVAQVCGVQRLCNYYSARLTPLPGPDSTRESNHRLAQITQYARQLASSPSIIDNRSRQHLNDVGLTAWDCVIISQIIGFIGFQARTIATFQAYLGHPVRWLPGLEIQNYADASLFADESLRWRSSYEVEKLPEEHTKSSTAELCQLAEILSLHPISLSLLEKLLNSTRGNTQPDNQLAALLCARINGSPACFATCMDSSNEYKKISTLMRKGENEINQWADRHSVERATVQAIQWLTRAPDRFSAAQFSPLLEHEKSSTQIINLLVWSGLCGWINRLKIALGETY", "Measurement": 1.26}
{"Residue string": "MIDYEVLRFIWWLLVGVLLIGFAVTDGFDMGVGMLTRFLGRNDTERRIMINSIAPHWDGNQVWLITAGGALFAAWPMVYAAAFSGFYVAMILVLASLFFRPVGFDYRSKIEETRWRNMWDWGIFIGSFVPPLVIGVAFGNLLQGVPFNVDEYLRLYYTGNFFQLLNPFGLLAGVVSVGMIITQGATYLQMRTVGELHLRTRATAQVAALVTLVCFALAGVWVMYGIDGYVVKSTMDHYAASNPLNKEVVREAGAWLVNFNNTPILWAIPALGVVLPLLTILTARMDKAAWAFVFSSLTLACIILTAGIAMFPFVMPSSTMMNASLTMWDATSSQLTLNVMTWVAVVLVPIILLYTAWCYWKMFGRITKEDIERNTHSLY [P0ABK2]", "Measurement": 5.91}

Identify measured total protein half-life in vivo associated with MAKVLVLYYSMYGHIETMARAVAEGASKVDGAEVVVKRVPETMPPQLFEKAGGKTQTAPVATPQELADYDAIIFGTPTRFGNMSGQMRTFLDQTGGLWASGALYGKLASVFSSTGTGGGQEQTITSTWTTLAHHGMVIVPIGYAAQELFDVSQVRGGTPYGATTIAGGDGSRQPSQEELSIARYQGEYVAGLAVKLNG [P0A8G6]
5.7

Identify measured total protein half-life in vivo associated with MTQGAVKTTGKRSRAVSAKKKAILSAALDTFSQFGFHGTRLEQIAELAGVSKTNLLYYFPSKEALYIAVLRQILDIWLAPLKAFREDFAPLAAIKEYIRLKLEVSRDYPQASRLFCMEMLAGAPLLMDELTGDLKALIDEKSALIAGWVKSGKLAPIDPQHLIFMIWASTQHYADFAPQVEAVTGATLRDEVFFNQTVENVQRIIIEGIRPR [P0ACU2]
5.5

Identify measured total protein half-life in vivo associated with MKATSEELAIFVSVVESGSFSRAAEQLGQANSAVSRAVKKLEMKLGVSLLNRTTRQLSLTEEGERYFRRVQSILQEMAAAESEIMETRNTPRGLLRIDAATPVVLHFLMPLIKPFRERYPEVTLSLVSSETIINLIERKVDVAIRAGTLTDSSLRARPLFNSYRKIIASPDYISRYGKPETIDDLKQHICLGFTEPASLNTWPIARSDGQLHEVKYGLSSNSGETLKQLCLSGNGIACLSDYMIDKEIARGELVELMADKVLPVEMPFSAVYYSDRAVSTRIRAFIDFLSEHVKTAPGGAVREA
5.97

Identify measured total protein half-life in vivo associated with MKFKVIALAALMGISGMAAQANELPDGPHIVTSGTASVDAVPDIATLAIEVNVAAKDAATAKKQADERVAQYISFLELNQIAKKDISSANLRTQPDYDYQDGKSILKGYRAVRTVEVTLRQLDKLNSLLDGALKAGLNEIRSVSLGVAQPDAYKDKARKAAIDNAIHQAQELANGFHRKLGPVYSVRYHVSNYQPSPMVRMMKADAAPVSAQETYEQAAIQFDDQVDVVFQLEPVDQQPAKTPAAQ [P0ADS6]
6.77
